Assay: yeast display, Sf9 membrane polyspecificity reagent, FACS + sequencing; frameworks hold sequencing errors
result-type: polyreactivity (PSR sort gate)

Below: 4 sequences and their reported polyreactivity (PSR sort gate).
QVQLVESGGVLVQAGGILRLSCAESGSIFSYYAMVWYRQAPWKERELVASISWNGTSTYYADSVKGRFTISRDNSKNTVYLQMNSLKPEDTAVYYCNVRFNYRGTYDYWGQGTQVTVSS :: low polyreactivity
QVQHVESGGGLVQAGGSLRLSCAASGSIIPSNVMGWYRQTPGKDRELVAAISNTGSTNYADSVKGRFTISRDNAKNSVYLQMNSLKPEDTAVYYCNADASYGFWSLLDYDYWGQGTQVTVSS :: low polyreactivity
QVQLVESGGGLVQAGGSLRLSCAASGITFRWNAMGWYRPAPGKERELVAAITTRGGGTYYADSVKGRFTISRDNAKNTVYLQMNSMKPEDTAVYYCAAKKSRYPYNYWGQGTQVTVSS :: high polyreactivity
QDQLVESGGGLVQAGGSLRLSCAASGIIFARYAMGWSRPAPGKERELVAAITSGGGSTYYADSVKGRFTISRDNAMNTVYLQMYSLKPEDTAVYYCAADYQTIGWGYDYWGQGTQVTVSS :: low polyreactivity

In: Please indicate polyreactivity (PSR sort gate) recorded for QVQLVESGGGLVQAGGSLRLSCAASGRNFRSYVMGWYRQAPGKERELVASIRNRGGTTYYADSVKGRFTISRDNAKNTVYLQMNSLKPEDTAVYYCNAAPARTVYAQSSYVLYDYWGQGTQVTVSS
Out: low polyreactivity

In: Please indicate polyreactivity (PSR sort gate) recorded for QVQLVESGGGLVQAGGSLRLSCAASGFTFWRNAMGWYRQAPGKERELVAAISSGTGRTYYADSVKGRFTISRDNAKYTVYLQMNSLKPEDTAVYYCAKVNWRTSYGTSTRDYWGQGTQVTVSS
Out: low polyreactivity

In: Please indicate polyreactivity (PSR sort gate) recorded for QVQLVESGGGLVQAGGSLRLSCAASGRTFNGDAMGWYRQAPGKERELVAAISSSGGSTYYADSVKGRFTISRDNAKNTVYLQMNSLKPEDTAVYYCAARRANGFNYWGHGTQVTVSS
Out: high polyreactivity

In: Please indicate polyreactivity (PSR sort gate) recorded for QVQLVESGGGLVQAGGSLRLSCAASGSPVSRYALGWYRQAPGKERELVAAFSWGGNTYYADSVKGRFTISRDNAKNTVYLQMKSLKPEDTAVYYCNRYSKLYNTMDYWGQGTQVTVSS
Out: high polyreactivity

In: Please indicate polyreactivity (PSR sort gate) recorded for QVQLVESGGGLVQAGGSLRLSCAASGITFYYYAMGWYRQAPGKERELVASISQSGGSTYYAASVKGRFSISRDNAKNTVYLQMNSLKPEDTAVYYCAADPGRYYPMYYWGQGTQVTVSS
Out: low polyreactivity

In: Please indicate polyreactivity (PSR sort gate) recorded for QVQLVESGGGLVQAGGSLRLSCAASGYTFVTYAMGWYRQAPGKERELVAAISYTGGSTYYADSEKGRFTISRDNAKNTVYLQMNSLKPEDTAVYYCNTRYSLYTKYAYYDEHDYWGQGTQVTVSS
Out: low polyreactivity

In: Please indicate polyreactivity (PSR sort gate) recorded for QVQLVESGGGLVQAGGSLRLSCAASGRTYTYYAMGWYRQAPGKERELVAAISDSGGRTYYADSVKGRFTISRDNAKNTVYLQMNSLKPEDTAVYYCAATTYPYYRFDYWGQGTQVTVSS
Out: high polyreactivity
